- tested-system: Recombinant human glucagon receptor-expressing CHO cells (Homo sapiens (Human), UniProt P47871)
- Sequence (P47871 26-477): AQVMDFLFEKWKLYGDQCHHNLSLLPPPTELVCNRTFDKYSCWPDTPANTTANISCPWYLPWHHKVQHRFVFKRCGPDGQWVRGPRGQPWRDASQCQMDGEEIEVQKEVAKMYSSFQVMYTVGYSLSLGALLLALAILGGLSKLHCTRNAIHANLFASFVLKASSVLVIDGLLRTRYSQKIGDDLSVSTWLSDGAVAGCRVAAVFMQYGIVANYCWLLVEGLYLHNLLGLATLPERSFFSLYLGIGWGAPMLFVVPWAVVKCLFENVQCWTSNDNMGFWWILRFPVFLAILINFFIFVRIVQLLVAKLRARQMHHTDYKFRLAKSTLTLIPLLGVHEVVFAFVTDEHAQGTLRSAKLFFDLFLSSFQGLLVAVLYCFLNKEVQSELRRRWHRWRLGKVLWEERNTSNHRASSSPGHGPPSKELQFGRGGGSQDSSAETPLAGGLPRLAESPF
- test: Inhibition of Glucagon-Stimulated Intracellular cAMP Assay
- assay-conditions: stimulation with 300 pM glucagon; LANCE cAMP Kit
endpoint: IC50 (µM)

Check out these entries, answers already filled in.
CC(C)CC1(C)N=C(c2cc(Cl)cc(Cl)c2)C(=O)N1CCc1ccc(C(=O)NCCC(=O)O)cc1 (stereo not shown); 4.2
CC(C)(C)CC[C@H](c1ccc(C(=O)Nc2nn[nH]n2)cc1)N1C(=O)C(c2cccc(F)c2)=NC1(C)C; 5.9
CC1(C)N=C(c2cc(Cl)cc(Cl)c2)C(=O)N1CCc1ccc(C(=O)NCCC(=O)O)cc1; 1.7
CC(C)CC1(C)N=C(c2cccc(F)c2)C(=O)N1[C@H](CCC(C)(C)C)c1ccc(C(=O)NCc2nn[nH]n2)cc1 (stereo partly shown); 3.4

(I) CCCC[C@H](c1ccc(C(=O)NCCC(=O)O)cc1)N1C(=O)C(c2ccc(-c3cc(Cl)cc(Cl)c3)cc2)=NC1(C)C
(II) CC(C)(C)CC[C@H](c1ccc(C(=O)NCc2nn[nH]n2)cc1)N1C(=O)C(c2cc(Cl)cc(Cl)c2)=NC1(C)C
(III) CC1(C2CCCCC2)N=C(c2cc(Cl)cc(Cl)c2)C(=O)N1CCc1ccc(C(=O)NCCC(=O)O)cc1 (stereo not shown)
Data request: Order field: IC50 | Direction: descending (largest first) Answer format: list of labels, ordered as asked.
Data returned: II, III, I

* * *

- tested-system: Recombinant human glucagon receptor-expressing CHO cells (Homo sapiens (Human), UniProt P47871)
- test: Inhibition of Glucagon-Stimulated Intracellular cAMP Assay
- assay-conditions: stimulation with 300 pM glucagon; LANCE cAMP Kit
pIC50: −log10 of the molar value.
endpoint: pIC50

CC(C)[C@H](c1ccc(C(=O)NCCC(=O)O)cc1)N1C(=O)C(c2cc(Cl)cc(Cl)c2)=NC1(C)C; 5.89

(a) CC(C)(C)CC[C@H](c1ccc(C(=O)NCCC(=O)O)cc1)N1C(=O)C(c2cccc(F)c2)=NC1(C)C
(b) CC(C)CC1(C)N=C(c2cc(Cl)cc(Cl)c2)C(=O)N1[C@H](CCC(C)(C)C)c1ccc(C(=O)NCCC(=O)O)cc1 (stereo partly shown)
(c) CC(C)CC1(C)N=C(c2cc(Cl)cc(Cl)c2)C(=O)N1[C@H](CCC(C)(C)C)c1ccc(C(=O)NCc2nn[nH]n2)cc1 (stereo partly shown)
Data request: Rank items: key pIC50, increasing. Rank them, then answer with their labels in that order.
Data returned: a, c, b
(a: 5.31, c: 5.96, b: 6.22)

(A) CC1(C2CCCCC2)NC(c2cccc(C(F)(F)F)c2)C(=O)N1CCc1ccc(C(=O)NCCC(=O)O)cc1 (stereo not shown)
(B) CC(C)(C)CC[C@H](c1ccc(C(=O)Nc2nn[nH]n2)cc1)N1C(=O)C(c2cc(Cl)cc(Cl)c2)=NC1(C)C
Data request: Which of the two items, A and B , has the greater recorded pIC50? Refer to your chosen item by its label in the answer.
Data returned: A

* * *

- tested-system: Recombinant human glucagon receptor-expressing CHO cells (Homo sapiens (Human), UniProt P47871)
- test: Inhibition of Glucagon-Stimulated Intracellular cAMP Assay
- assay-conditions: stimulation with 300 pM glucagon; LANCE cAMP Kit
pIC50: −log10 of the molar value.
endpoint: pIC50

Check out these entries, answers already filled in.
CC(C)(C)CC[C@H](c1ccc(C(=O)NCc2nn[nH]n2)cc1)N1C(=O)C(c2cccc(F)c2)=NC1(C)C; 5.08
CC(C)(C)CC[C@H](c1ccc(C(=O)NCCC(=O)O)cc1)N1C(=O)C(c2cc(Cl)cc(Cl)c2)=NC1(C)C; 6.10
CC(C)CC1(C)N=C(c2cc(Cl)cc(Cl)c2)C(=O)N1[C@H](CCC(C)(C)C)c1ccc(C(=O)Nc2nn[nH]n2)cc1 (stereo partly drawn); 5.29
CC1(C)N=C(c2cc(Cl)cc(Cl)c2)C(=O)N1[C@@H](c1ccc(C(=O)NCCC(=O)O)cc1)C1CC1; 5.77

(a) CC1(C)N=C(c2ccc(OC(F)(F)F)cc2)C(=O)N1CCc1ccc(C(=O)NCCC(=O)O)cc1
(b) CCCC[C@H](c1ccc(C(=O)NCCC(=O)O)cc1)N1C(=O)C(c2cc(Cl)cc(Cl)c2)=NC1(C)C
Data request: From the items above, decide which of a and b has the lower pIC50 reading. Please respond with the label that marks your chosen entry.
Data returned: a
(a: 5.08, b: 5.70)

From: patent US8633231B2
